Provenance of the data: paper PMC9774939

value-type: melting point

Consider `COC(=O)c1ccccc1NC(=O)c1nn(-c2ccc(Cl)cc2)c(-n2cccc2)c1C` . Its measured melting point is 217 to 219 °C

Consider `CSc1ccc(NC(=O)c2nn(-c3ccc(Cl)cc3)c(-n3cccc3)c2C)cc1` . Its measured melting point is 102 to 105 °C

Consider `Cc1c(C(=O)Nc2nc(-c3ccc(F)cc3)cs2)nn(-c2ccc(Cl)c(Cl)c2)c1-n1cccc1` . Its measured melting point is 207 to 210 °C

###

Overview of recorded Average FIC Index for various compounds
system: A. baumannii N50; assay: Chequerboard analysis with colistin; type: cell-based, Acinetobacter baumannii; conditions: combination with colistin; MDR, colistin-resistant isolate
// no unit, no text: just the number

> print(dat)
                                   compound         value.type  recorded.value
1  O=C(NC12CC3CC(CC(C3)C1)C2)c1cnn(-c2ccccc2)c1-n1cccc1 [Compound 8]  Average FIC Index            0.24
2  O=C(NCc1ccc2c(c1)OCO2)c1cnn(-c2ccccc2)c1-n1cccc1 [Compound 1]  Average FIC Index             0.5
3  Cc1c(C(=O)Nc2ccc(O)cc2)nn(-c2ccc(Cl)cc2)c1-n1cccc1 [Compound 45]  Average FIC Index            0.26
4  CC(C)(C)OC(=O)[C@H](Cc1ccccc1)NC(=O)c1cnn(-c2ccccc2)c1-n1cccc1 [Compound 9]  Average FIC Index            0.23
5  Cc1c(C(=O)Nc2ccc(S(C)(=N)=O)cc2)nn(-c2ccc(Cl)cc2)c1-n1cccc1 (stereo not drawn) [Compound 49]  Average FIC Index            0.31

Turning to the following compound.
Consider Cc1c(C(=O)N(C)CCN(C)C)nn(-c2ccc(Cl)cc2)c1-n1cccc1 [Compound 2] . Its measured Average FIC Index is 0.4

###

Overview of recorded melting point for various compounds

Consider the worked cases shown below.
> print(dat)
                                test.smiles  recorded.value
1  CC(C)(C)OC(=O)Nc1c(C(=O)NCc2ccc(-c3ccc(OC(F)(F)F)cc3)cn2)cnn1-c1ccc([N+](=O)[O-])cc1   197 to 199 °C
2  N#Cc1c(C(=O)NC23CC4CC(CC(C4)C2)C3)nn(-c2ccccc2)c1-n1cccc1   227 to 229 °C
3  N#Cc1c(C(=O)NCc2ccncc2)nn(-c2ccc(Cl)cc2)c1-n1cccc1     85 to 88 °C

Turning to the following compound.
Consider `CCOC(=O)NS(=O)(=O)c1ccc(NC(=O)c2nn(-c3ccc(Cl)cc3)c(-n3cccc3)c2C)cc1` . Its measured melting point is 188 to 190 °C

###

system: Klebsiella pneumoniae ATCC 13833; assay: MAC determination in the presence of subinhibitory colistin; assay type: cell-based; conditions: in the presence of 0.5 × MIC colistin
Overview of recorded MAC Kpn for various compounds
Please state the figure in µg/mL; there is no need to write the unit.

> print(dat)
                                   compound  recorded.value
1  CC(C)(C)OC(=O)Nc1c(C(=O)NCc2ccc(Br)cc2)cnn1-c1ccccc1 [Compound 20]              64
2  CC(C)(C)OC(=O)[C@H](Cc1ccccc1)NC(=O)c1cnn(-c2ccccc2)c1-n1cccc1 [Compound 9]               8

Consider CCOC(=O)[C@@H](NC(=O)c1cnn(-c2ccccc2)c1-n1cccc1)C(C)C [Compound 13] . Its measured MAC Kpn is 32

Consider Cc1c(C(=O)N(CCO)Cc2ccccc2)nn(-c2ccc(Cl)cc2)c1-n1cccc1 [Compound 31] . Its measured MAC Kpn is 16

Consider Cc1c(C(=O)Nc2ccc(O)cc2)nn(-c2ccc(Cl)cc2)c1-n1cccc1 [Compound 45] . Its measured MAC Kpn is 4

Consider Cc1c(C(=O)N2CCN(C)CC2)nn(-c2ccc(Cl)cc2)c1-n1cccc1 [Compound 28] . Its measured MAC Kpn is 64
